Catalogue of variants with associated polymerase ribozyme fitness (log ratio)
B1: TPR t1 (parent)
chain: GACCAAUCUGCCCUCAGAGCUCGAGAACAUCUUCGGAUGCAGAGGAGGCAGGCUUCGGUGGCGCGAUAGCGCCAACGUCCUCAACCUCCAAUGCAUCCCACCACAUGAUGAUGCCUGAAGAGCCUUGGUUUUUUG

# Variants of: B1
# Assay: polymerase ribozyme fitness, log enrichment relative to wild type (log ratio); higher = more active; in vitro selection for triplet polymerase activity

Prompt line: Give its polymerase ribozyme fitness (log ratio) value. Item: U92A U131G
Response line: -2.59

Prompt line: State the recorded polymerase ribozyme fitness (log ratio) for this entry: C13A A84G
Response line: -2.42

Prompt line: Suppose we examine the variant C12A A121U ; what polymerase ribozyme fitness (log ratio) value has been reported?
Response line: 1.74

Prompt line: Query (variant): G63A U106G ; field requested: polymerase ribozyme fitness (log ratio)
Response line: -2.57

Prompt line: Sample C8U C12A G61A C79U — what was its polymerase ribozyme fitness (log ratio)?
Response line: 0.0887

Prompt line: Suppose we examine the variant G93U C98U G120C ; what polymerase ribozyme fitness (log ratio) value has been reported?
Response line: -3.66
